Recorded inhibition in vivo at 200 mg/kg values for a group of compounds are listed next.
Tested on: Mus musculus
run-description: Antiinflammatory activity in mouse assessed as inhibition of arachidonic acid-induced ear lobe edema at 200 mg/kg, po administered 1 hr before arachidonic acid challenge measured after 1 hr relative to untreated control
Type: functional
endpoint-name: inhibition in vivo at 200 mg/kg (%)

In [3]: df
Out[3]:
                                   compound  endpoint_value
0  COc1cc(/C=C/C(=O)O)ccc1OCCCCOc1ccc(CC(=O)N(C)CCc2ccccc2)cc1              23
1  COc1cc(/C=C/C(=O)O)ccc1OCCOc1ccc(CC(=O)N(C)CCc2ccccc2)cc1              23
2  COc1cc(CCC(=O)O)ccc1OCCCOc1ccc(CC(=O)N(C)CCc2ccccc2)cc1              12
3  CC(C(=O)O)c1cccc2ccc(OCCCCOc3ccc(CC(=O)NCCc4ccccc4)cc3)cc12 (centres undefined)              26
4  CN(CCc1ccccc1)C(=O)Cc1ccc(OCCOc2ccc(CCCC(=O)O)cc2)cc1              12
5  CC(Cc1ccc(OCCCCOc2ccc(CC(=O)N(C)CCc3ccccc3)cc2)cc1)C(=O)O (centres undefined)              10
6  CC(CCc1ccc(OCCCOc2ccc(CC(=O)N(C)CCc3ccccc3)cc2)cc1)C(=O)O (centres undefined)              16
7  CC(CCc1ccc(OCCOc2ccc(CC(=O)N(C)CCc3ccccc3)cc2)cc1)C(=O)O (centres undefined)              14
8  CN(CCc1ccccc1)C(=O)Cc1ccc(OCCCOc2ccc(/C=C/C(=O)O)cc2)cc1              21

Each recorded value in this set is attributed to ChEMBL document CHEMBL1152840.
